Hello, the source for this data is patent US20140213531A1, in case you need it.

# % inhibition at 100 µM annotations
- Assayed System: Urokinase from human urine (human, UniProt P00749 21-431, limits assumed)
- Assay Procedure: cell-based or functional assay
Field: numeric (%). Do not append units.

INSERT INTO results (binder, experimental_result) VALUES
  ('FCTKSDPPICS (HELM PEPTIDE1{F.C.T.K.S.D.P.P.I.C.S.[dA].P}$PEPTIDE1,PEPTIDE1,2:R3-10:R3|PEPTIDE1,PEPTIDE1,1:R1-13:R2$$$V2.0; SMILES CC[C@H](C)[C@@H]1NC(=O)[C@@H]2CCCN2C(=O)[C@@H]2CCCN2C(=O)[C@H](CC(=O)O)NC(=O)[C@H](CO)NC(=O)[C@H](CCCCN)NC(=O)[C@H]([C@@H](C)O)NC(=O)[C@@H]2CSSC[C@H](NC1=O)C(=O)N[C@@H](CO)C(=O)N[C@H](C)C(=O)N1CCC[C@H]1C(=O)N[C@@H](Cc1ccccc1)C(=O)N2) [Example 49]', 6.2);

Next up:
What measured % inhibition at 100 µM goes with FCTKSDPPICS (HELM PEPTIDE1{F.C.T.K.S.D.P.P.I.C.S.[dD].P}$PEPTIDE1,PEPTIDE1,2:R3-10:R3|PEPTIDE1,PEPTIDE1,1:R1-13:R2$$$V2.0; SMILES CC[C@H](C)[C@@H]1NC(=O)[C@@H]2CCCN2C(=O)[C@@H]2CCCN2C(=O)[C@H](CC(=O)O)NC(=O)[C@H](CO)NC(=O)[C@H](CCCCN)NC(=O)[C@H]([C@@H](C)O)NC(=O)[C@@H]2CSSC[C@H](NC1=O)C(=O)N[C@@H](CO)C(=O)N[C@H](CC(=O)O)C(=O)N1CCC[C@H]1C(=O)N[C@@H](Cc1ccccc1)C(=O)N2) [Example 46] ?
5.8
